- test.method.notes: tubulin staining increase by stabilizing compounds – imaging, high-content imaging, primary screen (AID 2205)
- cond: HeLa tubulin immunostaining HCS, 24 h, at 10 µM, share of cells brighter than vehicle mean+2SD
The whole screen tested about 200,000 compounds, of which about 1,600 (0.8%) were called active.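 Rule for the calls: active = plate Z-score above 3 for both tubulin-high and condensed-nucleus cell shares, with cell loss under 80%, at 10 µM; inactive = the rest, inconclusive results apart.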 For the sample, actives were picked, then their nearest neighbours and some compounds at random.
The categories you may choose from are yes (1) = active, no (0) = inactive

Answered cases to consult:
> print(dat)
                                   compound  label.class
1  Cc1ccc(CNC(=O)CCNS(=O)(=O)c2ccc(Br)s2)cc1       no (0)
2       Cc1cc(C)c(C#N)c(SCC(=O)Nc2ccccc2)n1       no (0)
3  Cc1cccc(C)c1NC(=O)C(c1ccccc1)N1CC(=O)Nc2ccccc21 (stereo unspecified)       no (0)
4  FC(F)(F)c1nnc2ccc(N3CCN(c4ccccc4)CC3)nn12       no (0)
5  CCOC(=O)CC(NC(=O)C1c2ccccc2Oc2ccccc21)c1ccc(C)cc1 (stereo unspecified)       no (0)

We now examine a further compound.
Answer briefly: the call reported for Fc1c(F)c(C(F)(F)F)c(F)c(F)c1N1CCN(c2ccc3nnc(C(F)(F)F)n3n2)CC1 in this assay.
yes (1)

---

- test.method.notes: tubulin staining increase by stabilizing compounds – imaging, high-content imaging, primary screen (AID 2205)
- cond: HeLa tubulin immunostaining HCS, 24 h, at 10 µM; measured here: nuclear condensation Hoechst responders, stronger effect = higher value, share of cells brighter than vehicle mean+2SD
In all, about 200,000 compounds went through this assay and about 1,600 (0.8%) were called active. Shown is part of a subset that was picked to be rich in actives.
measured.endpoint: % Hoechst-high responders (%)
All answers are understood in %, so give the number only.

Recorded % Hoechst-high responders, per entry:
> print(dat)
                                    compound          measured.endpoint  number
 1                CCC(=O)/C=C1\Sc2ccccc2N1CC  % Hoechst-high responders   0.853
 2        CCOc1cccc(-n2nnnc2-c2ccc(OC)cc2)c1  % Hoechst-high responders    43.4
 3  NS(=O)(=O)c1ccc(NC(=O)COC(=O)c2ccc(Cl)nc2)cc1  % Hoechst-high responders    1.74
 4  CCC(C)NC(=O)/C=C/c1ccc(S(=O)(=O)NCc2ccco2)cc1 (stereo unspecified)  % Hoechst-high responders    1.97
 5  CC1Cc2ccccc2N1S(=O)(=O)c1c(N)n(C)c(=O)n(C)c1=O (stereo unspecified)  % Hoechst-high responders    3.17
 6        COc1ccc(-n2nnnc2-c2nc3ccccc3s2)cc1  % Hoechst-high responders    2.51
 7  CC(Sc1nnc2c(n1)C1CCC2(C)C1(C)C)C(=O)Nc1ccccc1 (stereo unspecified)  % Hoechst-high responders       3
 8  O=C(NNC(=S)NCc1ccco1)C(c1ccccc1)c1ccccc1  % Hoechst-high responders    2.12
 9  CCOc1cccc(-c2nnc3sc(COc4ccc(OC)cc4)nn23)c1  % Hoechst-high responders    1.53
10  CC(C)Cc1nc(Nc2ccc(S(=O)(=O)N3CCCC3)cc2)c2nnn(Cc3ccccc3)c2n1  % Hoechst-high responders    2.68

Next:
Can you share its % Hoechst-high responders? I mean this compound: COc1ccc(C)cc1NC(=O)CSc1nnc(CC(=O)Nc2ccccc2F)n1C
1.3

---

- test.method.notes: tubulin staining increase by stabilizing compounds – imaging, high-content imaging, primary screen (AID 2205);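 for % tubulin-high responders: anti alpha tubulin signal scored within the nucleus-defined area of each cell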
- cond: HeLa tubulin immunostaining HCS, 24 h, at 10 µM; stronger effect = higher value, share of cells brighter than vehicle mean+2SD
In all, about 200,000 compounds went through this assay and about 1,600 (0.8%) were called active. Shown is part of a subset that was picked to be rich in actives.
% tubulin-high responders vs 3%: at or above is 1.0, below is 0.0.

> print(dat)
                                 smiles.str  label.class
1  Cc1ccc2nc(-c3ccncc3)cc(C(=O)Nc3ccc4c(c3)OCCO4)c2c1          1.0
2  COC(=O)c1ccccc1NS(=O)(=O)c1ccc2[nH]c(=O)[nH]c2c1          1.0
3  CC(=O)c1cc(-c2ccccc2)n(CC(=O)NC2CCCCC2)c1C          0.0
4      Cc1ccc(-c2cc(=O)c3ccc(F)cc3[nH]2)cc1          1.0
5  O=C(COC(=O)/C=C/c1nc2ccccc2s1)Nc1ccccc1Oc1ccccc1          0.0

We now examine a further compound.
Reported % tubulin-high responders reaches at least 3% for Cc1ccc(-c2cc(=O)c3ccc(Cl)cc3[nH]2)cc1 ?
0.0

---

- test.method.notes: tubulin staining increase by stabilizing compounds – imaging, high-content imaging, primary screen (AID 2205)
- cond: HeLa tubulin immunostaining HCS, 24 h, at 10 µM; measured here: nuclear condensation Hoechst responders, stronger effect = higher value, share of cells brighter than vehicle mean+2SD
Hit rate of the full screen: of about 200,000 compounds, about 1,600 (0.8%) were called active. Only a selection was taken, and actives are over-represented in it overall.
% Hoechst-high responders overview
All answers are understood in %, so give the number only.

> print(dat)
                                   compound          measured.endpoint  u  number
1  COc1ccccc1NC1=NC(c2ccc(Cl)cc2)N=C(N)N1 (stereo unspecified)  % Hoechst-high responders  %    46.7
2  Cc1cc(NC(=O)CSc2nc(C(C)C)nc3sc4c(c23)CCC(C)C4)no1 (stereo unspecified)  % Hoechst-high responders  %    2.02
3  Cn1c2ccccc2c(=O)c2c(=O)n(Cc3ccco3)c(COc3ccccc3)nc21  % Hoechst-high responders  %      17
4  O=S(=O)(c1cccc(C(F)(F)F)c1)N1CCN(c2cnccn2)CC1  % Hoechst-high responders  %    2.29
5  Cc1cc(-c2nnc(CCC(=O)NC(c3ccccc3)c3ccccc3)o2)no1  % Hoechst-high responders  %     1.8

Can you share its % Hoechst-high responders? I mean this compound: Cc1csc(CN(C)C(=O)CC2C(=O)NCCN2CC(C)(C)C)n1 (stereo unspecified)
2.16

Can you share its % Hoechst-high responders? I mean this compound: Cc1cc(-c2csc(N)n2)c(C)n1-c1ccccc1
2.12

Can you share its % Hoechst-high responders? I mean this compound: CCC1(C(=O)c2ccccc2)C(c2cccc([N+](=O)[O-])c2)C1(C(=O)OC)C(=O)OC (stereo unspecified)
2.35

Can you share its % Hoechst-high responders? I mean this compound: C=CCn1c(SCc2c(C)noc2C)nc2sc3c(c2c1=O)CCC(C)C3 (stereo unspecified)
27.2

Can you share its % Hoechst-high responders? I mean this compound: COc1ccccc1NC1=NC2(CCCC2)N=C(N)N1
1.77

Can you share its % Hoechst-high responders? I mean this compound: COc1ccc(OC)c(/C=C/C(=O)OCC(=O)Nc2ccc3c(c2)OCCO3)c1
20.4

---

- test.method.notes: tubulin staining increase by stabilizing compounds – imaging, high-content imaging, primary screen (AID 2205)
- cond: HeLa tubulin immunostaining HCS, 24 h, at 10 µM, share of cells brighter than vehicle mean+2SD
The campaign covered roughly 200,000 compounds. About 1,600 (0.8%) were called active.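 How the source made its calls: active means plate Z-score above 3 for both tubulin-high and condensed-nucleus cell shares, with cell loss under 80%, at 10 µM; inactive means the rest, inconclusive results apart.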 The entries come from a sample that favours actives as a whole.
The categories you may choose from are yes (active), no (inactive)

Answered cases to consult:
> print(dat)
                                   compound  label.class
1  CCOc1ccc(C2C(C(=O)NC)=C(C)Nc3nc4ccccc4n32)cc1OC (stereo unspecified)           no
2  CCS(=O)(=O)Nc1ccc(C2=NN(C(C)=O)C(c3cccs3)C2)cc1 (stereo unspecified)          yes
3  COc1ccc(NC(=O)CSc2nnc(-c3ccccc3F)n2C2CC2)cc1S(N)(=O)=O           no

Answer briefly: the call reported for CCOC(=O)Cc1ncccc1C(=O)Nc1ccc(OC)cc1 in this assay.
no

Answer briefly: the call reported for CCOC(=O)C1=C(C)Nc2nc3ccccc3n2C1c1cccs1 (stereo unspecified) in this assay.
no

Answer briefly: the call reported for CS(=O)(=O)Nc1ccc(C2=NN(S(C)(=O)=O)C(c3cccs3)C2)cc1 (stereo unspecified) in this assay.
no

---

- test.method.notes: tubulin staining increase by stabilizing compounds – imaging, high-content imaging, primary screen (AID 2205)
- cond: HeLa tubulin immunostaining HCS, 24 h, at 10 µM; measured here: nuclear condensation Hoechst responders, stronger effect = higher value, share of cells brighter than vehicle mean+2SD
About 1,600 (0.8%) of roughly 200,000 compounds were called active. This excerpt belongs to a sample that is enriched for actives.
measured.endpoint: % Hoechst-high responders (%)
All answers are understood in %, so give the number only.

> print(dat)
                              compound  number
1  COc1cccc(C(=O)Nc2ccc(N3CCCC3)cc2)c1    30.7

Can you share its % Hoechst-high responders? I mean this compound: O=C(/C=C/c1cccs1)NCc1cccnc1
2.05

Can you share its % Hoechst-high responders? I mean this compound: CCOc1cc(NS(=O)(=O)c2ccc(OC)cc2)c(OCC)cc1NC(C)=O
0.933

Can you share its % Hoechst-high responders? I mean this compound: CN(CC(=O)NC1CCCC1)S(=O)(=O)c1cnc[nH]1
1.61

Can you share its % Hoechst-high responders? I mean this compound: Cc1ccccc1-c1nc(C#N)c(NCc2ccco2)o1
2.06

Can you share its % Hoechst-high responders? I mean this compound: O=C(c1snnc1-c1ccccc1)N1CCOCC1
2.21

Can you share its % Hoechst-high responders? I mean this compound: O=C(/C=C/c1ccc(Cl)c([N+](=O)[O-])c1)c1cccnc1
0.942

Can you share its % Hoechst-high responders? I mean this compound: CC(C)CNC(=O)CC(NCC(C)C)C(=O)O (centres undefined)
2.02

Can you share its % Hoechst-high responders? I mean this compound: N/C(=N\OS(=O)(=O)c1cccc([N+](=O)[O-])c1)c1ccncc1
2

Can you share its % Hoechst-high responders? I mean this compound: CCc1ccc2c(c1)C(c1ccc([N+](=O)[O-])cc1)=NNC(c1ccccc1)=N2
3.31

Can you share its % Hoechst-high responders? I mean this compound: c1ccc(CN=C2Nc3ccccc3CS2)nc1
1.84

Can you share its % Hoechst-high responders? I mean this compound: CCN(CC)c1ccc(NC(=O)c2ccc(Cl)nc2)cc1
27

Can you share its % Hoechst-high responders? I mean this compound: COc1ccc(-c2csc(Nc3ccc(O)cc3)n2)cc1
4.55

Can you share its % Hoechst-high responders? I mean this compound: CCCCCCCCCCOC(=O)C[N+](C)(C)CC1CCCCC1O (centres undefined)
2.44

Can you share its % Hoechst-high responders? I mean this compound: COC(=O)c1cc(C(=O)N(Cc2ccccc2)c2ccccn2)cc([N+](=O)[O-])c1
2.13

Can you share its % Hoechst-high responders? I mean this compound: CSc1ccc(/C=N\NC(=O)CC(=O)NC(C)C)cc1
1.95

Can you share its % Hoechst-high responders? I mean this compound: O=C(COC(=O)/C=C/c1nc2ccccc2s1)Nc1ccccc1Oc1ccccc1
2.41

Can you share its % Hoechst-high responders? I mean this compound: COc1ccc(C(=O)NC(=S)Nc2ccc(N3CCCC3)cc2)cc1OC
1.47

Can you share its % Hoechst-high responders? I mean this compound: COC(=O)c1ccc(CN2CCN(CCCc3ccccc3)C(CCO)C2)cc1 (centres undefined)
1.96

Can you share its % Hoechst-high responders? I mean this compound: COc1cccc(OC)c1C(=O)Nc1ccc(N2CCCCC2)cc1
2.3

Can you share its % Hoechst-high responders? I mean this compound: COc1ccccc1-c1nc(C#N)c(N2CCC(C(N)=O)CC2)o1
1.21

Can you share its % Hoechst-high responders? I mean this compound: Cc1ccc(-n2c(SCC(=O)N3c4ccccc4Sc4ccccc43)nnc2-c2ccncc2)cc1
1.48

Can you share its % Hoechst-high responders? I mean this compound: O=C(NC1CCCCCC1)c1cccnc1Sc1ccc(Cl)cc1
1.73

Can you share its % Hoechst-high responders? I mean this compound: COc1ccc(Nc2nc(-c3ccccc3)cs2)cc1
2.53
